Reported Herbicidal action against [%] AVEFA values for a set of compounds
- System: Avena fatua
- method summary: Post-emergence herbicidal action against AVEFA
- Type: in vivo
- condition context: 20 g a.i./ha, visual rating about 3 weeks after treatment
Could you give me the number in %? Just the number is fine.

Recorded Herbicidal action against [%] AVEFA, per entry:
-- ask Find Herbicidal action against [%] AVEFA for CC1(C(=O)NC2C=CC(C(=O)OCCSCc3ccccc3)C2)CC(c2cc(F)cc(F)c2)=NO1 (stereo not drawn) on Avena fatua and write it down.
-- reply 90

-- ask Find Herbicidal action against [%] AVEFA for CSCCOC(=O)C1C=CC(NC(=O)C2(C)CC(c3cc(C#N)cc(C#N)c3)=NO2)C1 (stereo not drawn) [Example I-52] on Avena fatua and write it down.
-- reply 80

More entries:
-- ask Find Herbicidal action against [%] AVEFA for CSCCOC(=O)C1C=CC(NC(=O)C2(C)CC(c3cc(Cl)cc(C#N)c3)=NO2)C1 (mixture of isomers) [Example I-49] on Avena fatua and write it down.
-- reply 90

-- ask Find Herbicidal action against [%] AVEFA for C[S+]([O-])CCOC(=O)C1C=CC(NC(=O)C2(C)CC(c3cc(F)cc(F)c3)=NO2)C1 (mixture of isomers) on Avena fatua and write it down.
-- reply 80

-- ask Find Herbicidal action against [%] AVEFA for CSCCOC(=O)C1C=CC(NC(=O)C2(C)CC(c3cc(C#N)cc(C#N)c3)=NO2)C1 (mixture of isomers) [Example I-46] on Avena fatua and write it down.
-- reply 90

-- ask Find Herbicidal action against [%] AVEFA for C=CC1(C(=O)NC2C=CC(C(=O)OCCSC)C2)CC(c2cc(F)cc(F)c2)=NO1 (stereo not drawn) on Avena fatua and write it down.
-- reply 90

-- ask Find Herbicidal action against [%] AVEFA for CSCCOC(=O)[C@@H]1C=C[C@H](NC(=O)C2(C(F)(F)F)CC(c3cc(F)cc(Cl)c3)=NO2)C1 (stereo partly drawn) on Avena fatua and write it down.
-- reply 80

-- ask Find Herbicidal action against [%] AVEFA for C=CC1(C(=O)NC2C=CC(C(=O)OCCSC)C2)CC(c2cccc(F)c2)=NO1 (stereo not drawn) on Avena fatua and write it down.
-- reply 90

-- ask Find Herbicidal action against [%] AVEFA for CC(C)SCCOC(=O)C1C=CC(NC(=O)C2(C)CC(c3cc(F)cc(F)c3)=NO2)C1 (stereo not drawn) on Avena fatua and write it down.
-- reply 90

-- ask Find Herbicidal action against [%] AVEFA for CN(C)C(=O)SCCOC(=O)C1C=CC(NC(=O)C2(C)CC(c3cc(F)cc(F)c3)=NO2)C1 (stereo not drawn) on Avena fatua and write it down.
-- reply 80

-- ask Find Herbicidal action against [%] AVEFA for COC1(C(=O)NC2C=CC(C(=O)OCCSC(F)(F)F)C2)CC(c2cc(F)cc(F)c2)=NO1 (stereo not drawn) on Avena fatua and write it down.
-- reply 80

-- ask Find Herbicidal action against [%] AVEFA for CSCCOC(=O)C1C=CC(NC(=O)C2(C)CC(c3cc(F)cc(Cl)c3)=NO2)C1 (stereo not drawn) on Avena fatua and write it down.
-- reply 90

-- ask Find Herbicidal action against [%] AVEFA for CSCCOC(=O)C1C=CC(NC(=O)C2(C)CC(c3cc(Cl)cc(C#N)c3)=NO2)C1 (stereo not drawn) [Example I-72] on Avena fatua and write it down.
-- reply 80

-- ask Find Herbicidal action against [%] AVEFA for CC1(C(=O)NC2C=CC(C(=O)OCCSCc3ccc(F)cc3)C2)CC(c2cc(F)cc(F)c2)=NO1 (stereo not drawn) on Avena fatua and write it down.
-- reply 90

-- ask Find Herbicidal action against [%] AVEFA for C=CCSCCOC(=O)C1C=CC(NC(=O)C2(OC)CC(c3cc(F)cc(F)c3)=NO2)C1 (stereo not drawn) on Avena fatua and write it down.
-- reply 90
